experiment.summary: In vitro rat liver S9 stability assay, formation of tafamidis
Assay type: in vitro ADME
assay.setup: rat liver S9, 37° C., 1 µM test compound
value.kind: Formation of tafamidis at 60 min

O=C(OC1CCN(C2CC2)C1)c1ccc2nc(-c3cc(Cl)cc(Cl)c3)oc2c1 (stereo not drawn) | D (D is ≥75%)
CN1CC(OC(=O)c2ccc3nc(-c4cc(Cl)cc(Cl)c4)oc3c2)C1 | B (B is ≥25 to <50%)
O=C(OC1CCCn2ccnc21)c1ccc2nc(-c3cc(Cl)cc(Cl)c3)oc2c1 (stereo not drawn) | D (D is ≥75%)
CCN1CCCC(OC(=O)c2ccc3nc(-c4cc(Cl)cc(Cl)c4)oc3c2)C1 (stereo not drawn) | B (B is ≥25 to <50%)
